Reference for the values: PubChem BioAssay AID248

Let's look at some molecules and their measured T/C.
- Test system: L1210 leukemia ip in BDF1 mice, survival T/C
- ASSAY NAME: NCI In Vivo Anticancer Drug Screen. Data for tumor model L1210 Leukemia (intraperitoneal) in B6D2F1 (BDF1) mice
- COND: endpoint: mean survival time; dose: 300.0 mg/kg/injection; schedule: Q01DX009 (ip); vehicle: Klucel (hydroxypropylcellulose) (HPC); higher = longer survival
Toxic doses and inconclusive results are not listed.

molecule=CCOc1ccc(Cl)cc1 reading="96 % of control"
molecule=CC(=O)c1c(C)cc(C)c(CC(=O)O)c1C reading="93 % of control"
molecule=Cc1cc(C)c(-c2c(C)cc(C)c([N+](=O)[O-])c2C)c(C)c1N reading="100 % of control"

*Q* Bench note: what T/C did CC(=O)OCC1=C(COC(C)=O)C2OC1C1OC(=O)OC21 (centres undefined) show?
*A* 104 % of control
